Source of measurements: patent US20230257351A1

# MEASURED TARGET: human P2X4 (Homo sapiens)
# Construct: expressed in transfected cells
# Sequence (Q99571 whole entry): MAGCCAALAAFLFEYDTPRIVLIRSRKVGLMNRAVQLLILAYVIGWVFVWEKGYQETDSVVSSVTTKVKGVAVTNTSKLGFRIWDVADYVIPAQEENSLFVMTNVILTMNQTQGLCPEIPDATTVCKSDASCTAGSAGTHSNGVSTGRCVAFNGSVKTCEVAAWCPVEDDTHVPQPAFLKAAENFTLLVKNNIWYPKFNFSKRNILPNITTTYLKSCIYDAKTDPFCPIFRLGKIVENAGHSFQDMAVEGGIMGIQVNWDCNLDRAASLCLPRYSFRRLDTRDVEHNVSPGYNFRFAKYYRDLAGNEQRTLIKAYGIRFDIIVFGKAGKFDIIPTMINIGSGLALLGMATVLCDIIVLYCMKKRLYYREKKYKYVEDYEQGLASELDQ
# ASSAY PROTOCOL: Human P2X4 HEK Cell FLIPR Assay
# Type: cell-based
# CONDITION SUMMARY: HEK293 stably expressing human P2X4; agonist Bz-ATP 3 μM (EC80)
Reported Human P2X4 HEK Cells (FLIPR Assay) avg Efficacy by item:
REPORTED METRIC: Human P2X4 HEK Cells (FLIPR Assay) avg Efficacy

* CC(=O)N(c1ccc(C#N)c(C(F)(F)F)c1)c1cc(NC(=O)Cc2cccc(F)c2Cl)ccn1 | 100%
* COc1cc(N(C(C)=O)c2cc(NC(=O)Cc3cccc(F)c3Cl)ccn2)ccc1F | 97%
* CC(=O)N(c1cc(NC(=O)Cc2ccc(F)cc2Cl)ccn1)c1ccccc1C(F)F | 101%
* CC(=O)N(c1ccc(C)c(Cl)c1)c1cc(NC(=O)Cc2c(Cl)cccc2Cl)ccn1 | 102%
* CC(=O)N(c1ccccc1)c1cc(NC(=O)Cc2c(F)cccc2Cl)ccn1 | 91%
* CC(=O)N(c1ccc(F)c(F)c1)c1cc(NC(=O)Cc2c(Cl)cccc2Cl)cnn1 | 91%
* CC(=O)N(c1ccc(S(C)(=O)=O)c(Cl)c1)c1cc(NC(=O)Cc2c(Cl)cccc2Cl)ccn1 | 100%
* CC(=O)N(c1ccccc1)c1cc(NC(=O)Cc2ccc(F)cc2Cl)ccn1 | 102%
* CC(=O)N(c1ccc(Cl)c(F)c1)c1cc(NC(=O)Cc2cccc(F)c2Cl)ccn1 | 96%
* CC(=O)N(c1cc(NC(=O)Cc2c(F)cccc2Cl)ccn1)c1ccc(F)cc1Cl | 102%
* CC(=O)N(c1cc(NC(=O)Cc2c(F)cccc2Cl)ccn1)c1ccc(F)cc1F | 97%
* CC(=O)N(c1ccc(C)cc1)c1cc(NC(=O)Cc2ccccc2Cl)ccn1 | 100%
* COc1cc(F)cc(N(C(C)=O)c2cc(NC(=O)Cc3ccccc3Cl)ccn2)c1 | 101%
* CCCC(=O)N(c1ccc(F)cc1)c1cc(NC(=O)Cc2ccccc2Cl)ccn1 | 94%
* CC(=O)N(c1ccc(F)cc1)c1cc(NC(=O)Cc2c(Cl)cccc2Cl)ccn1 | 96%
* CC(=O)N(c1ccc(F)c(Cl)c1)c1cc(NC(=O)Cc2c(Cl)cccc2Cl)ccn1 | 100%
* CC(=O)N(c1cccc(OC(F)(F)F)c1)c1cc(NC(=O)Cc2ccccc2Cl)ccn1 | 99%
* CC(=O)N(c1cc(F)cc(Cl)c1)c1cc(NC(=O)Cc2c(Cl)cccc2Cl)ccn1 | 100%
* CC(=O)N(c1cc(F)cc(F)c1)c1cc(NC(=O)Cc2ccccc2Cl)ccn1 | 98%
* CC(=O)N(c1cc(NC(=O)Cc2ccccc2Cl)ccn1)c1ccccc1F | 96%
* CC(=O)N(c1cc(NC(=O)Cc2ccccc2Cl)ccn1)c1cccc(F)c1F | 95%
* CC(=O)N(c1cc(C)cc(C#N)c1)c1cc(NC(=O)Cc2cccc(F)c2Cl)ccn1 | 96%
* CC(=O)N(c1cc(C)cc(C#N)c1)c1cc(NC(=O)Cc2ccc(F)cc2Cl)ccn1 | 99%
* CC(=O)N(c1cc(F)cc(Cl)c1)c1cc(NC(=O)Cc2ccc(F)cc2Cl)ccn1 | 104%
* CC(=O)N(c1ccc(F)c(C#N)c1)c1cc(NC(=O)Cc2ccccc2Cl)ccn1 | 91%
* CC(=O)N(c1cc(NC(=O)Cc2cccc(C(F)(F)F)c2Cl)ccn1)c1cc(F)ccc1Cl | 95%
* CC(=O)N(c1cccc(Cl)c1)c1cc(NC(=O)Cc2cccc(F)c2Cl)ccn1 | 100%
* CC(=O)N(c1ccc(F)cc1)c1cc(NC(=O)Cc2ccc(F)cc2Cl)cnn1 | 95%
* CC(=O)N(c1cccc(F)c1)c1cc(NC(=O)Cc2c(Cl)cccc2Cl)cnn1 | 96%
* CC(=O)N(c1ccc(Cl)c(F)c1)c1cc(NC(=O)Cc2c(Cl)cccc2Cl)ccn1 | 98%
* COc1cc(F)cc(N(C(C)=O)c2cc(NC(=O)Cc3ccc(F)cc3Cl)ccn2)c1 | 100%
* CC(=O)N(c1ccccc1)c1cc(NC(=O)Cc2ccccc2Cl)ccn1 | 100%
* CC(=O)N(c1ccc(F)c(F)c1)c1cc(NC(=O)Cc2c(C)cccc2C)ccn1 | 90%
